// data source = the supplement of paper PMC8617591

Known AUC25 of a selection of compounds
test system: Mycobacterium tuberculosis Erdman (autoluminescent); experiment: AUC25, normalised area under dose response up to IC25 (three-drug combination) (fraction (0-1)); higher = more potent at low dose; details: in vitro model: dormancy (butyrate + nitrate, low O2); time point: constant (~7 days, model-specific)
parameter: AUC25

compound	parameter	observed-measurement
COc1c(N2C[C@@H]3CCCN[C@@H]3C2)c(F)cc2c(=O)c(C(=O)O)cn(C3CC3)c12 [moxifloxacin] + NC(=O)c1cnccn1 [pyrazinamide] + CO[C@H]1/C=C/O[C@@]2(C)Oc3c(C)c(O)c4c(O)c(c(/C=N/N5CCN(C6CCCC6)CC5)c(O)c4c3C2=O)NC(=O)/C(C)=C\C=C\[C@H](C)[C@H](O)[C@@H](C)[C@@H](O)[C@@H](C)[C@H](OC(C)=O)[C@@H]1C [rifapentine]	AUC25	0.0716
COc1nc2ccc(Br)cc2cc1[C@@H](c1ccccc1)[C@@](O)(CCN(C)C)c1cccc2ccccc12 [bedaquiline] + NC(=O)c1cnccn1 [pyrazinamide] + CO[C@H]1/C=C/O[C@@]2(C)Oc3c(C)c(O)c4c(O)c(c(/C=N/N5CCN(C6CCCC6)CC5)c(O)c4c3C2=O)NC(=O)/C(C)=C\C=C\[C@H](C)[C@H](O)[C@@H](C)[C@@H](O)[C@@H](C)[C@H](OC(C)=O)[C@@H]1C [rifapentine]	AUC25	0.0664
COc1nc2ccc(Br)cc2cc1[C@@H](c1ccccc1)[C@@](O)(CCN(C)C)c1cccc2ccccc12 [bedaquiline] + CC(C)/N=c1\cc2n(-c3ccc(Cl)cc3)c3ccccc3nc-2cc1Nc1ccc(Cl)cc1 [clofazimine] + NC(=O)c1cnccn1 [pyrazinamide]	AUC25	0.0795
CC[C@@H](CO)NCCN[C@@H](CC)CO [ethambutol] + COc1c(N2C[C@@H]3CCCN[C@@H]3C2)c(F)cc2c(=O)c(C(=O)O)cn(C3CC3)c12 [moxifloxacin] + O=[N+]([O-])c1cn2c(n1)OC[C@@H](OCc1ccc(OC(F)(F)F)cc1)C2 [pretomanid]	AUC25	0.116
COc1c(N2C[C@@H]3CCCN[C@@H]3C2)c(F)cc2c(=O)c(C(=O)O)cn(C3CC3)c12 [moxifloxacin] + O=[N+]([O-])c1cn2c(n1)OC[C@@H](OCc1ccc(OC(F)(F)F)cc1)C2 [pretomanid] + NC(=O)c1cnccn1 [pyrazinamide]	AUC25	0.0852
COc1nc2ccc(Br)cc2cc1[C@@H](c1ccccc1)[C@@](O)(CCN(C)C)c1cccc2ccccc12 [bedaquiline] + CC(C)/N=c1\cc2n(-c3ccc(Cl)cc3)c3ccccc3nc-2cc1Nc1ccc(Cl)cc1 [clofazimine] + O=[N+]([O-])c1cn2c(n1)OC[C@@H](OCc1ccc(OC(F)(F)F)cc1)C2 [pretomanid]	AUC25	0.0645
COc1nc2ccc(Br)cc2cc1[C@@H](c1ccccc1)[C@@](O)(CCN(C)C)c1cccc2ccccc12 [bedaquiline] + CC(=O)NC[C@H]1CN(c2ccc(N3CCOCC3)c(F)c2)C(=O)O1 [linezolid] + NC(=O)c1cnccn1 [pyrazinamide]	AUC25	0.0774
CC(=O)NC[C@H]1CN(c2ccc(N3CCOCC3)c(F)c2)C(=O)O1 [linezolid] + NC(=O)c1cnccn1 [pyrazinamide] + CO[C@H]1/C=C/O[C@@]2(C)Oc3c(C)c(O)c4c(O)c(c(/C=N/N5CCN(C)CC5)c(O)c4c3C2=O)NC(=O)/C(C)=C\C=C\[C@H](C)[C@H](O)[C@@H](C)[C@@H](O)[C@@H](C)[C@H](OC(C)=O)[C@@H]1C [rifampicin]	AUC25	0.0758
CC(C)/N=c1\cc2n(-c3ccc(Cl)cc3)c3ccccc3nc-2cc1Nc1ccc(Cl)cc1 [clofazimine] + NNC(=O)c1ccncc1 [isoniazid] + CO[C@H]1/C=C/O[C@@]2(C)Oc3c(C)c(O)c4c(O)c(c(/C=N/N5CCN(C6CCCC6)CC5)c(O)c4c3C2=O)NC(=O)/C(C)=C\C=C\[C@H](C)[C@H](O)[C@@H](C)[C@@H](O)[C@@H](C)[C@H](OC(C)=O)[C@@H]1C [rifapentine]	AUC25	0.0787
CC[C@@H](CO)NCCN[C@@H](CC)CO [ethambutol] + NNC(=O)c1ccncc1 [isoniazid] + O=[N+]([O-])c1cn2c(n1)OC[C@@H](OCc1ccc(OC(F)(F)F)cc1)C2 [pretomanid]	AUC25	0.162
CC(=O)NC[C@H]1CN(c2ccc(N3CCOCC3)c(F)c2)C(=O)O1 [linezolid] + O=[N+]([O-])c1cn2c(n1)OC[C@@H](OCc1ccc(OC(F)(F)F)cc1)C2 [pretomanid] + CO[C@H]1/C=C/O[C@@]2(C)Oc3c(C)c(O)c4c(O)c(c(/C=N/N5CCN(C)CC5)c(O)c4c3C2=O)NC(=O)/C(C)=C\C=C\[C@H](C)[C@H](O)[C@@H](C)[C@@H](O)[C@@H](C)[C@H](OC(C)=O)[C@@H]1C [rifampicin]	AUC25	0.0572
O=[N+]([O-])c1cn2c(n1)OC[C@@H](OCc1ccc(OC(F)(F)F)cc1)C2 [pretomanid] + NC(=O)c1cnccn1 [pyrazinamide] + CO[C@H]1/C=C/O[C@@]2(C)Oc3c(C)c(O)c4c(O)c(c(/C=N/N5CCN(C6CCCC6)CC5)c(O)c4c3C2=O)NC(=O)/C(C)=C\C=C\[C@H](C)[C@H](O)[C@@H](C)[C@@H](O)[C@@H](C)[C@H](OC(C)=O)[C@@H]1C [rifapentine]	AUC25	0.0875
